# Target or test system: human kidney-type glutaminase (KGA), catalytic domain (cKGA) (Homo sapiens, UniProt O94925)
# Sequence (O94925 221-533): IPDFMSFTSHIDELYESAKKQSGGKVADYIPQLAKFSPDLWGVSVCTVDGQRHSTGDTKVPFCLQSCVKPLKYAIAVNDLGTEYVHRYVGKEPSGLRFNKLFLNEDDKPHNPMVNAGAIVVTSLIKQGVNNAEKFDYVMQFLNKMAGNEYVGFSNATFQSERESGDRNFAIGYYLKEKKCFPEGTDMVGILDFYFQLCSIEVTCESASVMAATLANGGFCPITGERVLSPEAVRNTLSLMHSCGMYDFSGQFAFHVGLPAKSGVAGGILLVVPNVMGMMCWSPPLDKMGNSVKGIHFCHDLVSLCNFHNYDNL
Measured property: IC50

Query: Any idea what IC50 was measured for [N-]=[N+]=CC(=O)CC[C@H](N)C(=O)O ?
Response: ~1000 µM
